# assayedSystem: Protein in Human Serum
# experimentalProtocol: protein binding in human serum; method not described
Non-standard residues stand in square brackets, D forms with d. No end group written: not given here.
endpoint: % Protein Binding in Human Serum

These recorded examples may help you get a feel for the data.
{"binder": "PRRRRRRRRRRPIWTIKLWHP", "endpoint": "% Protein Binding in Human Serum", "val": "100%"}
{"binder": "RRRRRRRRRRPIIRIRHYRP", "endpoint": "% Protein Binding in Human Serum", "val": "81%"}

### Prompt Fill in % Protein Binding in Human Serum for record [dR][dF][dY][dY][dH][dR][dR] [rfyyhrr]
### Response 91%

### Prompt Fill in % Protein Binding in Human Serum for record [dK][dF][dR][dF][dY][dH][dR] [kfrfyhr]
### Response 81%

The origin of these recorded values is patent US20200062804A1.
